# experiment.description: Stability of PARP inhibiting (olaparib) conjugates in plasma and tumor tissue, release of olaparib
# Assay type: in vitro ADME
# condition.details: plasma; Table 3; read-out: Plasma t1/2 (converted)
reported.metric: half-life (h)
Give a bare numeral; the unit h is implied.

{"columns": ["compound", "numeric.result"],
 "data": [
  ["CC(C)c1cc(-c2nnc(O)n2-c2ccc(CN3CCN(CCC(C)(C)SSc4ccc(COC(=O)N(CCN(C)C)Cn5nc(Cc6ccc(F)c(C(=O)N7CCN(C(=O)C8CC8)CC7)c6)c6ccccc6c5=O)cc4)CC3)cc2)c(O)cc1O [Compound 8]", 46]
]}

Please report the recorded half-life for CC(C)c1cc(-c2nnc(O)n2-c2ccc(CN3CCN(CCC(C)(C)SSCCOC(=O)N(CCN(C)C)Cn4nc(Cc5ccc(F)c(C(=O)N6CCN(C(=O)C7CC7)CC6)c5)c5ccccc5c4=O)CC3)cc2)c(O)cc1O [Compound 7] .
43

====

# pIC50 listing for each entry below
# Test system: NCI-H460 (human non-small cell lung carcinoma)
# experiment.description: PI3K viability assay, NCI-H460 cells
# Type: cell-based
# condition.details: NCI-H460, read-out: IC50 NCI-H460 Run 2
Keep it numeric: pIC50 is minus log10 of the concentration in mol/L.

{"columns": ["compound", "numeric.result"],
 "data": [
  ["CC(C)c1cc(-c2nnc(O)n2-c2ccc(CN3CCN(C(=O)Oc4cccc(-c5nc(N6CCOCC6)c6oc7ncccc7c6n5)c4)CC3)cc2)c(O)cc1O [Compound 12]", 5.71]
]}

Alright, here's another compound for you.
Could you share which pIC50 value was measured for CC(C)c1cc(-c2nnc(O)n2-c2ccc(CN3CCN(C(=O)NC(CSSCCNC(=O)Oc4cccc(-c5nc(N6CCOCC6)c6oc7ncccc7c6n5)c4)C(N)=O)CC3)cc2)c(O)cc1O (centres unmarked) [Compound 13] ?
5.09

====

# experiment.description: Stability of PARP inhibiting (olaparib) conjugates in plasma and tumor tissue, release of olaparib
# Assay type: in vitro ADME
# condition.details: tumor tissue; Table 1; read-out: Tumor t1/2 (converted)
half-life overview
Express your answer in min, writing the number without its unit.

Worked cases, half-life given:
{"columns": ["compound.structure.string", "numeric.result"],
 "data": [
  ["CC(C)c1cc(-c2nnc(O)n2-c2ccc3c(ccn3CCC3CCN(CCC(C)(C)SSCCOC(=O)N(CCN(C)C)Cn4nc(Cc5ccc(F)c(C(=O)N6CCN(C(=O)C7CC7)CC6)c5)c5ccccc5c4=O)CC3)c2)c(O)cc1O", 270],
  ["CC(C)c1cc(-c2nnc(O)n2-c2ccc3c(ccn3CCC3CCN(CCC(C)(C)SSCCOC(=O)NCn4nc(Cc5ccc(F)c(C(=O)N6CCN(C(=O)C7CC7)CC6)c5)c5ccccc5c4=O)CC3)c2)c(O)cc1O", 38.4]
]}

If you can, please state the reported half-life value of `CC(C)c1cc(-c2nnc(O)n2-c2ccc3c(ccn3CCC3CCN(CCCSSCCOC(=O)N(CCN(C)C)Cn4nc(Cc5ccc(F)c(C(=O)N6CCN(C(=O)C7CC7)CC6)c5)c5ccccc5c4=O)CC3)c2)c(O)cc1O` .
16.2

====

# Tested on: HCT-116 (human colon carcinoma)
# experiment.description: PI3K viability assay, HCT-116 cells
# Assay type: cell-based
# condition.details: HCT-116, read-out: IC50 HCT-116 Run 2
Each item that follows carries a reported IC50.
The reply should be a number in µM, with the unit left off.

{"columns": ["molecule", "numeric.result"],
 "data": [
  ["CC(C)c1cc(-c2nnc(O)n2-c2ccc(CN3CCN(C(=O)NC(CSSCCNC(=O)Oc4cccc(-c5nc(N6CCOCC6)c6oc7ncccc7c6n5)c4)C(N)=O)CC3)cc2)c(O)cc1O (centres unmarked) [Compound 13]", 10.7]
]}

Request the reported IC50 associated with CC(C)c1cc(-c2nnc(O)n2-c2ccc(CN3CCN(C(=O)Oc4cccc(-c5nc(N6CCOCC6)c6oc7ncccc7c6n5)c4)CC3)cc2)c(O)cc1O [Compound 12]
3.94
